- Tested on: chicken osteoclasts
- experiment description: resorption by chicken osteoclasts, release of 3H proline from labelled bone particles
- Assay type: cell-based
- run conditions: Gallus gallus, Osteoclast, 24 h, Graph 2a, 1 day resorption assay, read-out: IC₅₀ of resorption
measurement name: pIC50
As a rule, pIC50 stands for the negative log10 of the concentration, concentration in M.

Enquiry: What value of pIC50 has been reported for the following compound? CCCCC[C@H](O)/C=C/[C@H]1[C@H](O)CC(=O)[C@@H]1C/C=C\CCCC(=O)O
Return: 6.00
